Target Entity: Mannose-6-phosphate isomerase (Homo sapiens) (UniProt P34949)
Sequence (P34949 whole entry, looked up): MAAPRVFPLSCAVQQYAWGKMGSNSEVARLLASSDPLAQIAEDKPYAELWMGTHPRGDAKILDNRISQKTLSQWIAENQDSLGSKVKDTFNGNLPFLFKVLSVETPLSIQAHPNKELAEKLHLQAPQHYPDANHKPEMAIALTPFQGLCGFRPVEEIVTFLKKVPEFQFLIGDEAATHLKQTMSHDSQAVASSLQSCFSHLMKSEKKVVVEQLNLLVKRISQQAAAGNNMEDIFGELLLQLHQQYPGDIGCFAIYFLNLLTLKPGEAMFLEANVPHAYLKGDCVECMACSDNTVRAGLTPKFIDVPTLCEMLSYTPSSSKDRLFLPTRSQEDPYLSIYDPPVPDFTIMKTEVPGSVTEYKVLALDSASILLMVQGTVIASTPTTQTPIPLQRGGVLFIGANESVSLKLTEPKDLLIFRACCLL
Protocol Notes: inhibitors of human PMI, primary screen, biochemical, fluorescence intensity, coupled assay (AID 1209);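 note: plate controls were DMSO vehicle for no effect and wells lacking substrate for full effect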
Reported Conditions: purified PMI enzyme, at 20 µM, active compounds read high
The campaign covered roughly 190,000 compounds. About 810 (0.43%) were called active. The list comes from a sample in which actives are over-represented; it also holds close analogues and randomly drawn compounds.
Below: a set of entries, each annotated with reported inhibition.
Value Kind: inhibition

- Compound: "Cc1ccc(N2C(=O)NC(C(F)(F)F)(C(F)(F)F)C3=C2CC(C)(C)CC3=O)cc1"
  Value Kind: "inhibition"
  Experimental Value: "2.1% (inactive)"
- Compound: "Oc1c(C(c2cccs2)N2CCN(c3ccccc3)CC2)ccc2cccnc12 (stereo not given)"
  Value Kind: "inhibition"
  Experimental Value: "58.8% (active)"
- Compound: "O=c1c(C/C=C/c2ccccc2)c(O)ccn1Cc1ccc(Cl)cc1Cl"
  Value Kind: "inhibition"
  Experimental Value: "13.5% (inactive)"
- Compound: "COc1ccc(-c2cc(C(=O)Nc3sc4c(c3C#N)CCCC4)c3ccccc3n2)cc1"
  Value Kind: "inhibition"
  Experimental Value: "7.1% (inactive)"
- Compound: "CCOC(=O)c1sc(NC(=O)c2cc(-c3ccccc3C)nc3ccccc23)c(C#N)c1C"
  Value Kind: "inhibition"
  Experimental Value: "47.9% (inactive)"
- Compound: "Oc1c(C(Nc2ccccn2)c2ccccn2)ccc2cccnc12 (stereo not given)"
  Value Kind: "inhibition"
  Experimental Value: "6.9% (inactive)"
- Compound: "CCOC(=O)N1CCN(S(=O)(=O)c2cccc3cccnc23)CC1"
  Value Kind: "inhibition"
  Experimental Value: "-9.6% (inactive)"
- Compound: "CCOC(=O)N1CCN(C(c2cccnc2)c2ccc3cccnc3c2O)CC1 (stereo not given)"
  Value Kind: "inhibition"
  Experimental Value: "60.4% (active)"
- Compound: "COC(=O)c1sc(NC(=O)c2cc(-c3ccccc3)nc3ccccc23)c(C#N)c1C"
  Value Kind: "inhibition"
  Experimental Value: "5.2% (inactive)"
- Compound: "CCC(=O)NC(c1cccs1)c1ccc2cccnc2c1O (stereo not given)"
  Value Kind: "inhibition"
  Experimental Value: "33.8% (inactive)"

----------
Target Entity: Mannose-6-phosphate isomerase (Homo sapiens) (UniProt P34949)
Protocol Notes: inhibitors of human PMI, primary screen, biochemical, fluorescence intensity, coupled assay (AID 1209);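 note: plate controls were DMSO vehicle for no effect and wells lacking substrate for full effect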
Reported Conditions: purified PMI enzyme, at 20 µM, active compounds read high
Screen size: about 190,000 compounds; about 810 (0.43%) were called active. Many of the other results were omitted from the sample, so actives are more common in it than they were.

- Molecule: "CCOC(=O)c1c(NC(=O)Nc2cccc(Cl)c2)sc(C)c1C"
  inhibition: "-4.2% (inactive)"
- Molecule: "Cc1cc(/N=C/N(C)C)on1"
  inhibition: "4.8% (inactive)"
- Molecule: "CN(C)C=Nc1c(Br)cc(Br)c2nonc12"
  inhibition: "70.8% (active)"
- Molecule: "CCOC(=O)NC(=O)/C(C#N)=C\\c1ccccc1"
  inhibition: "52.6% (active)"
- Molecule: "Cc1ccc(OCc2n[nH]c(=S)n2N)cc1C"
  inhibition: "1.5% (inactive)"
- Molecule: "COc1ccc(OCc2n[nH]c(=S)n2N)cc1"
  inhibition: "80.7% (active)"
- Molecule: "CCOC(=O)C1CCN(C(=O)c2c(-c3c(Cl)cccc3Cl)noc2C)CC1"
  inhibition: "9.4% (inactive)"
- Molecule: "Cc1ccc(/C=C(/C#N)C(=O)NC(=O)Oc2ccccc2)cc1"
  inhibition: "4.9% (inactive)"
- Molecule: "COc1ccc(OCC(=O)N/N=C(\\C)c2cc3ccccc3o2)cc1"
  inhibition: "4.9% (inactive)"
- Molecule: "OC(CNCc1ccccc1Cl)C(F)(F)F (stereo not drawn)"
  inhibition: "5.4% (inactive)"
- Molecule: "COCCn1cc(C(=O)c2cc(Br)ccc2O)cc(C#N)c1=O"
  inhibition: "-5.8% (inactive)"
- Molecule: "O=C(CSc1nnc(-c2ccccc2F)o1)OCc1ccccc1"
  inhibition: "-0.7% (inactive)"
- Molecule: "CN(C)C=Nc1nonc1N"
  inhibition: "-5.6% (inactive)"

----------
Target Entity: Mannose-6-phosphate isomerase (Homo sapiens)
Protocol Notes: inhibitors of human PMI, primary screen, biochemical, fluorescence intensity, coupled assay (AID 1209);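 note: plate controls were DMSO vehicle for no effect and wells lacking substrate for full effect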
Reported Conditions: purified PMI enzyme, at 20 µM
The whole screen tested about 190,000 compounds, of which about 810 (0.43%) were called active. Rule as the data show it: active = inhibition above about 50%; inactive = the rest. What follows is part of a selection rich in actives, with near analogues and random picks from the rest.
Outcomes: true (1) for active, false (0) for inactive

- Compound: "CC1CCN(C(=O)CSc2nnc(CSc3ncccn3)n2C)CC1"
  Target Entity: "Mannose-6-phosphate isomerase (Homo sapiens)"
  Group: "false (0)"
- Compound: "CN=c1scc(-c2ccccc2F)n1/N=C/c1ccc(O)c(O)c1O"
  Target Entity: "Mannose-6-phosphate isomerase (Homo sapiens)"
  Group: "true (1)"
- Compound: "Nc1ccc(N2CCCCC2)cc1N1CCCCC1"
  Target Entity: "Mannose-6-phosphate isomerase (Homo sapiens)"
  Group: "true (1)"
- Compound: "CCOc1cc(C(=S)N2CCOCC2)ccc1O"
  Target Entity: "Mannose-6-phosphate isomerase (Homo sapiens)"
  Group: "true (1)"
- Compound: "CC1(c2ccccc2)NC(=O)N(CC(=O)Nc2cc(S(=O)(=O)N3CCOCC3)ccc2Cl)C1=O (stereo unspecified)"
  Target Entity: "Mannose-6-phosphate isomerase (Homo sapiens)"
  Group: "false (0)"
- Compound: "COc1ccc(/C=N\\NC(=O)COc2ccc(C(C)(C)C)cc2)cc1Cn1nc(C)cc1C"
  Target Entity: "Mannose-6-phosphate isomerase (Homo sapiens)"
  Group: "false (0)"
- Compound: "CN=c1scc(-c2cccs2)n1/N=C/c1ccccc1O"
  Target Entity: "Mannose-6-phosphate isomerase (Homo sapiens)"
  Group: "false (0)"
- Compound: "CCNc1nc(N2CCOCC2)nc(N(c2ccccc2)c2ccccc2)n1"
  Target Entity: "Mannose-6-phosphate isomerase (Homo sapiens)"
  Group: "false (0)"
- Compound: "Cc1cc2ccccc2n1CCNC(=O)c1ccccc1"
  Target Entity: "Mannose-6-phosphate isomerase (Homo sapiens)"
  Group: "false (0)"
- Compound: "CC(C)[C@H]1CN=C2N(CCNC(=O)CCC3CCCCC3)[C@H](Cc3ccc(O)cc3)CN21"
  Target Entity: "Mannose-6-phosphate isomerase (Homo sapiens)"
  Group: "true (1)"
- Compound: "COc1ccc(OCCCNCCc2ccccc2)cc1"
  Target Entity: "Mannose-6-phosphate isomerase (Homo sapiens)"
  Group: "false (0)"
- Compound: "C[C@@H]1CN=C2N(CCNC(=O)CCC3CCCCC3)[C@H](Cc3ccc(O)cc3)CN21"
  Target Entity: "Mannose-6-phosphate isomerase (Homo sapiens)"
  Group: "true (1)"
- Compound: "CCOc1ccc(C(=S)N2CCOCC2)cc1OCC"
  Target Entity: "Mannose-6-phosphate isomerase (Homo sapiens)"
  Group: "false (0)"
- Compound: "COc1cccc(NC(=O)C2CC(=O)N(C)C(=Nc3cccc(F)c3)S2)c1 (stereo unspecified)"
  Target Entity: "Mannose-6-phosphate isomerase (Homo sapiens)"
  Group: "false (0)"
- Compound: "C/C(=N\\NC(=O)c1ccccc1)c1ccc(C)c([N+](=O)[O-])c1"
  Target Entity: "Mannose-6-phosphate isomerase (Homo sapiens)"
  Group: "false (0)"
- Compound: "COc1c(/C=N/Nc2ccc([N+](=O)[O-])cc2[N+](=O)[O-])c(C)nn1-c1ccccc1"
  Target Entity: "Mannose-6-phosphate isomerase (Homo sapiens)"
  Group: "false (0)"
- Compound: "CC1CCc2c(nc3ncnn3c2N2CCN(c3ccccc3)CC2)C1 (stereo unspecified)"
  Target Entity: "Mannose-6-phosphate isomerase (Homo sapiens)"
  Group: "false (0)"
- Compound: "Cc1cc(=O)c2ccccc2s1"
  Target Entity: "Mannose-6-phosphate isomerase (Homo sapiens)"
  Group: "false (0)"
- Compound: "CC1(C)CC2(CC(c3ccccc3)c3ccc(O)cc3O2)NC(=S)N1 (stereo unspecified)"
  Target Entity: "Mannose-6-phosphate isomerase (Homo sapiens)"
  Group: "false (0)"
- Compound: "COc1cccc(NC(=O)C2CC(=O)n3cnnc3S2)c1 (stereo unspecified)"
  Target Entity: "Mannose-6-phosphate isomerase (Homo sapiens)"
  Group: "true (1)"
- Compound: "NC(=O)[C@@H]1CCNc2c(I)cc([N+](=O)[O-])cc2C(=O)N[C@@H](CO)C(=O)N[C@@H](Cc2ccc(O)cc2)C(=O)N1"
  Target Entity: "Mannose-6-phosphate isomerase (Homo sapiens)"
  Group: "false (0)"
- Compound: "CC1(C)CC2(CC(c3ccccc3F)c3cc(Cl)c(O)cc3O2)NC(=S)N1 (stereo unspecified)"
  Target Entity: "Mannose-6-phosphate isomerase (Homo sapiens)"
  Group: "false (0)"
- Compound: "O=C(NNc1ccccn1)C(c1ccccc1)c1ccccc1"
  Target Entity: "Mannose-6-phosphate isomerase (Homo sapiens)"
  Group: "true (1)"
- Compound: "COc1ccc(C[C@H]2CN3C(=NC[C@@H]3C(C)C)N2CCNC(=O)CCC2CCCCC2)cc1"
  Target Entity: "Mannose-6-phosphate isomerase (Homo sapiens)"
  Group: "false (0)"
- Compound: "CCn1c(SCC(=O)N2CCCC2)nc2c(c1=O)SC(C)C2 (stereo unspecified)"
  Target Entity: "Mannose-6-phosphate isomerase (Homo sapiens)"
  Group: "false (0)"
- Compound: "O=c1c2ccccc2sn1-c1ccccc1"
  Target Entity: "Mannose-6-phosphate isomerase (Homo sapiens)"
  Group: "true (1)"
- Compound: "CCCNS(=O)(=O)c1ccc(OCC(=O)Nc2ccccc2F)cc1"
  Target Entity: "Mannose-6-phosphate isomerase (Homo sapiens)"
  Group: "false (0)"
- Compound: "O=C1CCCN1c1nccs1"
  Target Entity: "Mannose-6-phosphate isomerase (Homo sapiens)"
  Group: "false (0)"
- Compound: "O=c1c2ccccc2sn1-c1nccs1"
  Target Entity: "Mannose-6-phosphate isomerase (Homo sapiens)"
  Group: "true (1)"
- Compound: "c1ccc(N2CCN(c3c4c(nc5ncnn35)CCC4)CC2)cc1"
  Target Entity: "Mannose-6-phosphate isomerase (Homo sapiens)"
  Group: "true (1)"
- Compound: "COC(=O)c1c(C(=O)OC)c2cc(C(=O)c3ccccc3)ccn2c1Cl"
  Target Entity: "Mannose-6-phosphate isomerase (Homo sapiens)"
  Group: "false (0)"
- Compound: "Cc1ccccc1N=Cc1c(O)n(-c2nccs2)c(=O)c2ccccc12"
  Target Entity: "Mannose-6-phosphate isomerase (Homo sapiens)"
  Group: "false (0)"
- Compound: "COc1cccc(N2CCN(c3c4c(nc5ncnn35)CCC4)CC2)c1"
  Target Entity: "Mannose-6-phosphate isomerase (Homo sapiens)"
  Group: "false (0)"
- Compound: "CCN1C(=O)CSc2ccc(C(=O)OC)cc21"
  Target Entity: "Mannose-6-phosphate isomerase (Homo sapiens)"
  Group: "false (0)"
- Compound: "N#C/C(=C\\c1cccc(NC(=O)c2ccccc2Cl)c1)C(=O)NCCc1ccccc1"
  Target Entity: "Mannose-6-phosphate isomerase (Homo sapiens)"
  Group: "false (0)"
- Compound: "O=c1[nH]n(-c2ccccc2)c(=O)c2ccccc12"
  Target Entity: "Mannose-6-phosphate isomerase (Homo sapiens)"
  Group: "false (0)"
- Compound: "COc1ccc2c(c1O)-c1ccccc1CCN(C)C2"
  Target Entity: "Mannose-6-phosphate isomerase (Homo sapiens)"
  Group: "false (0)"
- Compound: "CC(OC(=O)c1cccnc1Cl)C(=O)Nc1ccc2c(c1)OCCO2 (stereo unspecified)"
  Target Entity: "Mannose-6-phosphate isomerase (Homo sapiens)"
  Group: "false (0)"
- Compound: "CN=c1scc(-c2ccccc2F)n1/N=C(\\C)c1cccnc1"
  Target Entity: "Mannose-6-phosphate isomerase (Homo sapiens)"
  Group: "false (0)"
- Compound: "O=c1c2ccccc2c2ccccc2c(=O)n1-c1ccccc1"
  Target Entity: "Mannose-6-phosphate isomerase (Homo sapiens)"
  Group: "false (0)"
- Compound: "CN1CCc2ccccc2C1C1CCNCC1 (stereo unspecified)"
  Target Entity: "Mannose-6-phosphate isomerase (Homo sapiens)"
  Group: "false (0)"
- Compound: "Oc1ccc(/C=N/n2c(-c3ccco3)csc2=Nc2cccnc2)c(O)c1"
  Target Entity: "Mannose-6-phosphate isomerase (Homo sapiens)"
  Group: "false (0)"
- Compound: "CCCCNC(=S)NNC(=O)c1csc(C)c1CC"
  Target Entity: "Mannose-6-phosphate isomerase (Homo sapiens)"
  Group: "false (0)"
- Compound: "Cc1ccc(-n2nc3c4c(cccc4c2=O)-c2ccccc2-3)cc1"
  Target Entity: "Mannose-6-phosphate isomerase (Homo sapiens)"
  Group: "false (0)"
- Compound: "Cc1ccc(NC(=O)NC(=O)CN2C(=O)NC3(CCCCCCC3)C2=O)c(C)c1"
  Target Entity: "Mannose-6-phosphate isomerase (Homo sapiens)"
  Group: "false (0)"
- Compound: "Cc1nnc(NC(=O)c2ccc3ccccc3n2)s1"
  Target Entity: "Mannose-6-phosphate isomerase (Homo sapiens)"
  Group: "false (0)"
